Target: human GLP-1 receptor (human, UniProt P43220 24-463)
Assay: cell-based or functional assay
Starred links: 1 amine or outer side, 2 acyl side, 3 side chain; linkers in the order of their positions; H or OH if unused. Non-standard residues stand in square brackets, D forms with d. Groups on a side chain read outwards from the residue. No end group written: not given here. *: point of attachment. C18 diacid = O=C(O)CCCCCCCCCCCCCCCCC(=O)*; C16 diacid = O=C(O)CCCCCCCCCCCCCCC(=O)*; γGlu = O=C(O)[C@H](CCC(=O)[*:2])N[*:1]; εLys = N[C@@H](CCCCN[*:1])C(=O)[*:2]; AEEA = NCCOCCOCC(=O)O; Aib = CC(C)(N)C(=O)O
quantity measured: hGLP-1R, CRE Luc 0% HSA EC50 (pM)
Quick note: number first, unit second.

A selection of reference data follows.
[
  {
    "binder": "Y[Aib]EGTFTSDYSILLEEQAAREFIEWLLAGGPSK([εLys-εLys-γGlu-C16 diacid])GAPPPS-OH [Compound No. 46]",
    "hGLP-1R, CRE Luc 0% HSA EC50 (pM)": "1.5 pM"
  },
  {
    "binder": "Y[Aib]EGTFTSDYSILLEK([AEEA-AEEA-γGlu-C18 diacid])QAAREFINWLLAGGPSSGAPPPS-OH [Compound No. 35]",
    "hGLP-1R, CRE Luc 0% HSA EC50 (pM)": "3 pM"
  },
  {
    "binder": "Y[Aib]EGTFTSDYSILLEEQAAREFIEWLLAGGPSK([AEEA-AEEA-γGlu-C18 diacid])GAPPPS-OH [Compound No. 45]",
    "hGLP-1R, CRE Luc 0% HSA EC50 (pM)": "3.9 pM"
  }
]

Next item in the queue.
Requested field: hGLP-1R, CRE Luc 0% HSA EC50 (pM). Item: Y[Aib]EGTFTSDYSILLEEQAAREFIEWLLAGGPSKGAPPPS-OH (not fully specified (residue 33)) [Compound No. 47]
2.1 pM

// data source = patent US20230272029A1
